Each item that follows carries a reported abundance fitness.
B1: Pre-mRNA-processing factor 40 homolog B, residues 274 to 332; numbered along this chain, Q6NWY9 (parent)
chain: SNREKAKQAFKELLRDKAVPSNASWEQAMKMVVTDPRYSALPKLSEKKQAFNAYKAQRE

variants of: B1; experiment: abundance fitness (aPCA) (normalised: wild type 0, dead -1); higher = more abundant; growth selection in yeast, the domain comes from the species named; details: Homo sapiens
QUANTITY_KIND: abundance fitness

1. R15L; -0.097
2. E4W; -0.642
3. V32R; -0.599
4. N22G; -0.217
5. E26P; -0.149
6. S45F; -0.233
7. K7A; 0.027
8. D16T; -0.351
9. E12G; -0.491
10. K48W; -0.532
11. S45C; -0.484
12. R58T; -0.108
13. A9Q; -0.041
14. K47W; -0.765
15. M31Y; -0.32
16. L13W; -1.02
17. S39G; -0.071
18. K48R; -0.196
19. S1K; 0.135
20. L41I; -0.268
21. P36Q; -0.289
22. D35V; -0.85
23. N2M; -0.393
24. V33F; -0.228
25. N52Q; 0.062
26. E59T; -0.109
27. K11C; 0.061
28. K47S; -0.46
29. Y38P; -0.423
30. T34A; 0.028
31. R58W; 0.061
32. K5R; -0.193
33. A18P; -0.606
34. E4P; -0.566
35. A56R; -0.116
